Please respond with reported log10(EC50) for every item in the list.
assayed system: RXRγ (Mus musculus, UniProt P28705)
Sequence (P28705 1-463): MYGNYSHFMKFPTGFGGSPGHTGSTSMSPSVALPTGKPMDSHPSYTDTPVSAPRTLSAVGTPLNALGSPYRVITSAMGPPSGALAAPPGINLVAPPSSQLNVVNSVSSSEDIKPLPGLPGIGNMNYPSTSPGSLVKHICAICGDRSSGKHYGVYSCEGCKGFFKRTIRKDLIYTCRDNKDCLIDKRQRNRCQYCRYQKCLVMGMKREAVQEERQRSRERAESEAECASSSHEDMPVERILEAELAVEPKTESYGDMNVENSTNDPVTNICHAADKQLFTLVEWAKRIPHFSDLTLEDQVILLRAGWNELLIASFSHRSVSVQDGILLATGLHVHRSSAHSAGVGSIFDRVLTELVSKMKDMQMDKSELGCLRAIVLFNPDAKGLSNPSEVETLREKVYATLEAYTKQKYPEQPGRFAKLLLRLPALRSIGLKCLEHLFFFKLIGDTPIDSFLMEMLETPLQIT
test method notes: holoreceptor transactivation assay, RXRγ
measurement conditions: holoreceptor assay, read-out: RXR Trans EC50 γ
Use the decimal logarithm of EC50 (nM).

Quick one: give me log10(EC50) for each item below, same order please.
1. CCN(c1ccc(C(=O)O)cc1)c1cc2c(cc1C)N(C(C)C)CCC2(C)C
2. CC(C)CN(c1ccc(C(=O)O)cc1)c1ccc2c(c1)N(C(C)C)CCC2(C)C

output:
1. 1.84
2. 0.30

###

assayed system: RXRγ (Mus musculus)
Construct: expressed in transfected cells
test method notes: holoreceptor transactivation assay, RXRγ
Format: cell-based
measurement conditions: relative to 10^-6 M cyclopropyl penta-2,4-dienoic acid reference, read-out: % efficacy, RXRγ transactivation
Field: Emax. Provide a value for each of the compounds that follow.
One number for each entry, in %.

{"compound": "CCN(c1ccc(C(=O)O)cc1)c1ccc2c(c1)N(C(C)C)CCC2(C)C [Compound 38]", "Emax (%)": 109}

Your task in this section: give Emax for each listed record.
1. CC(C)N1CCC(C)(C)c2ccc(N(CC3CC3)c3ccc(C(=O)O)cc3)cc21 [Compound 40]
2. CCN(c1ccc(C(=O)O)cc1)c1ccc2c(c1)C(C)(C)CCN2C(C)C [Compound 12]
3. Cc1cc2c(cc1Nc1ccc(C(=O)O)cc1)N(C(C)C)CCC2(C)C [Compound 50]
4. CCN(c1ccc(C(=O)O)cc1)c1cc2c(cc1C)C(C)(C)CCN2C(C)C [Compound 52]
5. CCN(c1ccc(C(=O)O)cc1)c1cc2c(cc1C)N(C(C)C)CCC2(C)C [Compound 24]
6. CCCN(c1ccc(C(=O)O)cc1)c1cc2c(cc1C)C(C)(C)CCN2C(C)C [Compound 53]
7. Cc1cc2c(cc1N(CC1CC1)c1ccc(C(=O)O)cc1)C(C)(C)CCN2C(C)C [Compound 26]

output:
1: 105; 2: 150; 3: 102; 4: 96; 5: 117; 6: 96; 7: 75

###

assayed system: RXRβ (Homo sapiens, UniProt P28702)
Sequence (P28702 1-533): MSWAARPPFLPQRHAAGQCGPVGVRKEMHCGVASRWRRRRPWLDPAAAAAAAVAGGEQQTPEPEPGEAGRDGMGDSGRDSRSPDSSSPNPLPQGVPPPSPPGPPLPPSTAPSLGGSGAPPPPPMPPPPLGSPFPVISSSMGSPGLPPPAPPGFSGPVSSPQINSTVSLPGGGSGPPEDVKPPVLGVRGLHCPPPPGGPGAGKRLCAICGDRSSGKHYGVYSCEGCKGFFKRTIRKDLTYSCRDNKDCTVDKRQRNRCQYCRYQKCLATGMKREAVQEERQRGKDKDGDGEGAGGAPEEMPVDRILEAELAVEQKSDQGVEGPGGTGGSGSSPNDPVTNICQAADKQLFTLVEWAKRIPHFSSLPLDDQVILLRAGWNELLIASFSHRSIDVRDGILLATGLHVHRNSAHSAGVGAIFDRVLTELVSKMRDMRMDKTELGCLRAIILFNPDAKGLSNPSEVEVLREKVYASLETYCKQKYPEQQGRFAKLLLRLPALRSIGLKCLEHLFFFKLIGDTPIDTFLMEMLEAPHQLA
measured endpoint: pKi
Numbers only, as −log10 of the molar value.

Sample records with pKi:
{"compound string": "Cc1cc2c(cc1N(CC1CC1)c1ccc(C(=O)O)cc1)C(C)(C)CCN2C(C)C", "pKi": 6.41}
{"compound string": "CC(C)CCN(c1ccc(C(=O)O)cc1)c1ccc2c(c1)C(C)(C)CCN2C(C)C", "pKi": 6.11}
{"compound string": "Cc1cc2c(cc1N(C)c1ccc(C(=O)O)cc1)C(C)(C)CCN2C(C)C", "pKi": 5.96}
{"compound string": "CCCN(c1ccc(C(=O)O)cc1)c1cc2c(cc1C)C(C)(C)CCN2C(C)C", "pKi": 7.37}
{"compound string": "CCN(c1ccc(C(=O)O)cc1)c1cc2c(cc1C)N(C(C)C)CCC2(C)C", "pKi": 5.96}

Now for a further compound.
input: Request - read-out pKi | tested on RXRβ (Homo sapiens, UniProt P28702) | compound "Cc1cc2c(cc1Nc1ccc(C(=O)O)cc1)N(C(C)C)CCC2(C)C"
output: 6.58

Values compiled from patent US6127382A.
